The origin of these recorded values is ChEMBL document CHEMBL1128358.

- study-system: GABA-A receptor; anion channel
- assay-info: Binding affinity against Diazepam sensitive (DS) Gamma-aminobutyric acid A receptor
pIC50: −log10 of the molar value.
Catalogue of pIC50 values

Please review the entries below; each comes with its answer.
### Prompt GET /values?readout=pIC50&system=GABA-A receptor; anion channel&item= CCN(CC)Cc1ncn2c1CN(C)C(=O)c1cc(Cl)ccc1-2
### Response < 6.00

### Prompt # repeat for CN1Cc2c(CCl)ncn2-c2ccc(Cl)cc2C1=O
### Response < 6.30

---
### Prompt Short answer please: pIC50, GABA-A receptor; anion channel, entry CCCCCc1ncn2c1CN(C)C(=O)c1cc(Cl)ccc1-2
### Response < 6.00

### Prompt Also CC(C)N(Cc1ncn2c1CN(C)C(=O)c1cc(Cl)ccc1-2)C(C)C , if possible.
### Response < 6.00

### Prompt Moving on to the next compound: CCCCC(=O)c1ncn2c1CN(C)C(=O)c1cc(Cl)ccc1-2
### Response < 6.30

### Prompt // repeat for CN1Cc2c(CO)ncn2-c2ccc(Cl)cc2C1=O and report
### Response < 6.00

====

- study-system: GABA-A receptor; anion channel
- assay-info: Binding affinity against Diazepam insensitive (DI) Gamma-aminobutyric acid A receptor
endpoint-label: Ki

Worked set:
### Prompt Param readout= Ki; system= GABA-A receptor; anion channel; entry= CCCCC(=O)c1ncn2c1CN(C)C(=O)c1cc(Cl)ccc1-2 ; returns value.
### Response > 1000 nM

### Prompt // query: CC(C)N(Cc1ncn2c1CN(C)C(=O)c1cc(Cl)ccc1-2)C(C)C
### Response > 1000 nM

### Prompt Another compound to look at: CC(=O)c1ncn2c1CN(C)C(=O)c1cc(Cl)ccc1-2
### Response > 1000 nM

Continuing:
### Prompt Can you look up Ki on GABA-A receptor; anion channel for CN1Cc2c(CO)ncn2-c2ccc(Cl)cc2C1=O ?
### Response > 1000 nM

### Prompt Next entry: COc1ccc(-n2nc3c4ccccc4[nH]cc-3c2=O)cc1
### Response 9.3 nM

### Prompt Moving on to the next compound: CCCCCc1ncn2c1CN(C)C(=O)c1cc(Cl)ccc1-2
### Response > 1000 nM

====

- study-system: GABA-A receptor; anion channel
- assay-info: Binding affinity against Diazepam insensitive (DI) Gamma-aminobutyric acid A receptor
endpoint-label: Ki (nM)
Expressed in nM, but write only the number.

// worked examples, Ki included
### Prompt Please give the measured Ki for this compound: COc1cccc(-n2[nH]c3c(cnc4ccccc43)c2=O)c1
### Response 26

### Prompt Note, next up: COc1ccc2c(c1)ncc1c(=O)n(-c3ccccc3)[nH]c12
### Response 1.9

Next:
### Prompt Dear colleague, I am looking for the recorded Ki of the following compound: O=c1c2cnc3ccc(Cl)cc3c2[nH]n1-c1ccccc1
### Response 5.1

### Prompt Then CCOC(=O)c1ncn2c1CN(C)C(=O)c1cc(OC)ccc1-2 ?
### Response 23.8

### Prompt What do you have for COc1ccc2ncc3c(=O)n(-c4ccccc4)[nH]c3c2c1 ?
### Response 47
